TARGET OF ASSAY: recombinant human Lp-PLA2 (Homo sapiens, UniProt Q13093)
ASSAY PROCEDURE: Recombinant human Lp-PLA2 assay (rhLp-PLA2, PED6 assay)
Format: biochemical
EXPERIMENTAL SETUP: text thresholds; upper limit for pIC50 in this assay is 9.3; read-out: pIC50 values in the PED6 assay (converted)
RECORDED ENDPOINT: IC50

Some solved entries appear below for comparison.
* COc1ncc(Cc2c[nH]c(OCCc3ccc(Oc4cnc(C(F)(F)F)nc4)cc3)nc2=O)cn1 | ≤ 10 nM
* COc1ncc(Cc2c[nH]c(OCCc3ccc(Oc4ccc(C)c(Cl)c4)cc3)nc2=O)cn1 | ≤ 1 nM
* Cc1ccc(Oc2ccc(CCOc3nc(=O)c(Cc4cncnc4)c[nH]3)cc2)cc1Cl | ≤ 1 nM
* Cc1nnc(Cc2c[nH]c(OCCc3ccc(Oc4ccc(Cl)c(C(F)(F)F)c4)cc3)nc2=O)o1 | ≤ 10 nM
* O=c1ccc(Cc2c[nH]c(NCCc3ccc(Oc4ccc(Cl)c(C(F)(F)F)c4)cc3)nc2=O)c[nH]1 | ≤ 10 nM
* COc1ncc(Cc2c[nH]c(SCc3ccc(Oc4ccc(Cl)c(C(F)(F)F)c4)cc3)nc2=O)cn1 | ≤ 1 nM
* COc1ncc(Cc2c[nH]c(NCCc3ccc(Oc4ccc(C(F)(F)F)cn4)c(C#N)c3)nc2=O)cn1 | ≤ 10 nM

Consider now this further compound.
QUERY: Lab note: recombinant human Lp-PLA2 (Homo sapiens, UniProt Q13093) assay, enter IC50 for O=c1cc(Cc2c[nH]c(NCCc3ccc(Oc4ccc(Cl)c(C(F)(F)F)c4)cc3)nc2=O)cc[nH]1 here
RESULT: ≤ 10 nM

====

Listed here: items and their measured IC50.
TARGET OF ASSAY: recombinant human Lp-PLA2 (Homo sapiens)
ASSAY PROCEDURE: Recombinant human Lp-PLA2 assay (rhLp-PLA2, PED6 assay)
Format: biochemical
EXPERIMENTAL SETUP: upper limit for pIC50 obtained in this PED6 assay is 9.3; read-out: rhLp-PLA2 (PED6 assay) (pIC50) (converted)
Where a name gives a salt, the structure may show the parent alone.
Reply with just the number (in nM).

• Cn1cc(Cc2c[nH]c(OCCc3ccc(Oc4ccc(Cl)c(C(F)(F)F)c4)cc3)nc2=O)cn1 [E22, trifluoroacetate] = 0.794

QUERY: Read the entry Cc1nnc(Cc2c[nH]c(OCCc3ccc(Oc4ccc(Cl)c(C(F)(F)F)c4)cc3)nc2=O)o1 and write its reported IC50.
RESULT: 2.51

QUERY: Report IC50, nothing else, for this compound: Cc1noc(Cc2c[nH]c(OCCc3ccc(Oc4ccc(Cl)c(C(F)(F)F)c4)cc3)nc2=O)n1
RESULT: 3.16

QUERY: For COc1ncc(Cc2c[nH]c(NCCc3ccc(Oc4ccc(C(F)(F)F)cn4)c(C#N)c3)nc2=O)cn1 , write its IC50.
RESULT: 7.94

QUERY: Give recorded IC50. Cn1cc(Cc2c[nH]c(SCc3ccc(Oc4ccc(Cl)c(C(F)(F)F)c4)c(C#N)c3)nc2=O)c2ccccc21
RESULT: 25.1

QUERY: In one line, give reported IC50 of the entry O=c1cc(Cc2c[nH]c(NCCc3ccc(Oc4ccc(Cl)c(C(F)(F)F)c4)cc3)nc2=O)cc[nH]1 .
RESULT: 3.16

QUERY: Give recorded IC50. O=c1nc(NCCc2ccc(Oc3ccc(Cl)c(C(F)(F)F)c3)cc2)[nH]cc1Cc1cncnc1
RESULT: 1

====

TARGET OF ASSAY: Lp-PLA2 from plasma (pooled human plasma) (Homo sapiens)
Construct: 8 μL pooled human plasma; from tissue; host or cells: pooled human plasma
ASSAY PROCEDURE: Lp-PLA2 human plasma assay (Thio-PAF assay)
Assay type: biochemical
EXPERIMENTAL SETUP: text thresholds, read-out: pIC50 values in the thio-PAF assay (converted)
Listing: IC50 of selected compounds

Solved cases (2 shown):
- COc1ncc(Cc2c[nH]c(OCCc3ccc(Oc4ccc(C)c(F)c4)cc3)nc2=O)cn1: ≤ 1000 nM
- CCc1cn(C)c(OCCc2ccc(Oc3ccc(Cl)c(C(F)(F)F)c3)c(F)c2)nc1=O: ≤ 100 nM

QUERY: Fill in reported IC50 for this entry: Cn1cc(Cc2cn(C)c(SCCc3ccc(Oc4ccc(Cl)c(C(F)(F)F)c4)cc3)nc2=O)cn1
RESULT: ≤ 100 nM

QUERY: Item Cc1ncc(Cc2c[nH]c(NCCc3ccc(Oc4ccc(C(F)(F)F)c(Cl)c4)cc3)nc2=O)cn1 : provide IC50
RESULT: ≤ 1000 nM

====

TARGET OF ASSAY: Lp-PLA2 from plasma (pooled human plasma) (Homo sapiens)
Construct: 8 μL pooled human plasma; from tissue; host or cells: pooled human plasma
ASSAY PROCEDURE: Lp-PLA2 human plasma assay (Thio-PAF assay)
Assay type: biochemical
EXPERIMENTAL SETUP: text thresholds, read-out: pIC50 values in the thio-PAF assay (converted)
RECORDED ENDPOINT: IC50

- COc1ncc(Cc2c[nH]c(OCCc3cc(F)c(Oc4cnc(C(F)(F)F)nc4)c(F)c3)nc2=O)cn1 [E169]: ≤ 100 nM
- O=c1nc(NCCc2ccc(Oc3cccc(C(F)(F)F)c3)cc2)[nH]cc1Cc1cncnc1 [E185]: ≤ 1000 nM

QUERY: Entry CCc1cn(C)c(OCCc2cc(F)c(Oc3ccc(Cl)c(C(F)(F)F)c3)c(F)c2)nc1=O [E175] needs its IC50 filled in; supply it.
RESULT: ≤ 100 nM

QUERY: # return recorded IC50 for input COc1ncc(Cc2c[nH]c(SCc3ccc(Oc4ccc(Cl)c(C(F)(F)F)c4)c(C#N)c3)nc2=O)cn1 [E84]
RESULT: ≤ 1000 nM

QUERY: Return value of IC50 for input N#Cc1cc(CSc2nc(=O)c(Cc3cncnc3)c[nH]2)ccc1Oc1ccc(F)c(C(F)(F)F)c1 [E87] , no commentary.
RESULT: ≤ 1000 nM

QUERY: Report IC50, nothing else, for this compound: COc1ncc(Cc2c[nH]c(OCCc3ccc(Oc4cnc(C(F)(F)F)nc4)cc3)nc2=O)cn1 [E143]
RESULT: ≤ 1000 nM

QUERY: Specify IC50 for Cc1ccc(Oc2ccc(CCOc3nc(=O)c(Cc4cncnc4)c[nH]3)cc2)cc1Cl [E150] and stop.
RESULT: ≤ 100 nM

QUERY: State its IC50 for this compound: Cn1cc(Cc2cn(C)c(SCc3ccc(Oc4cc(Cl)ccn4)cc3)nc2=O)cn1 [E93]
RESULT: ≤ 100 nM

====

Listed next: entries and their corresponding IC50.
TARGET OF ASSAY: recombinant human Lp-PLA2 (Homo sapiens)
ASSAY PROCEDURE: Recombinant human Lp-PLA2 assay (rhLp-PLA2, PED6 assay)
Type: biochemical
EXPERIMENTAL SETUP: upper limit for pIC50 obtained in this PED6 assay is 9.3; read-out: rhLp-PLA2 (PED6 assay) (pIC50) (converted)
Give your result in nM as a bare value.

* CCc1cn(CC)c(OCCc2ccc(Oc3ccc(Cl)c(C(F)(F)F)c3)cc2)nc1=O | 2.51
* COc1ncc(Cc2c[nH]c(SCc3ccc(Oc4ccc(Cl)c(C(F)(F)F)c4)cc3)nc2=O)cn1 | 0.631
* O=c1nc(OCCc2ccc(Oc3ccc(Cl)c(C(F)(F)F)c3)cc2)[nH]cc1Cc1c(F)cc(F)cc1F | 3.98
* COc1ncc(Cc2c[nH]c(OCCc3ccc(Oc4ccc(Cl)c(C(F)(F)F)c4)cc3)nc2=O)cn1 | 0.794

QUERY: Give the value of IC50 reported for the following: O=c1ccc(Cc2c[nH]c(NCCc3ccc(Oc4ccc(Cl)c(C(F)(F)F)c4)cc3)nc2=O)c[nH]1
RESULT: 6.31

====

TARGET OF ASSAY: Lp-PLA2 from plasma (pooled human plasma) (Homo sapiens, UniProt Q13093)
Construct: 8 μL pooled human plasma; from tissue; host or cells: pooled human plasma
Sequence (Q13093 22-441): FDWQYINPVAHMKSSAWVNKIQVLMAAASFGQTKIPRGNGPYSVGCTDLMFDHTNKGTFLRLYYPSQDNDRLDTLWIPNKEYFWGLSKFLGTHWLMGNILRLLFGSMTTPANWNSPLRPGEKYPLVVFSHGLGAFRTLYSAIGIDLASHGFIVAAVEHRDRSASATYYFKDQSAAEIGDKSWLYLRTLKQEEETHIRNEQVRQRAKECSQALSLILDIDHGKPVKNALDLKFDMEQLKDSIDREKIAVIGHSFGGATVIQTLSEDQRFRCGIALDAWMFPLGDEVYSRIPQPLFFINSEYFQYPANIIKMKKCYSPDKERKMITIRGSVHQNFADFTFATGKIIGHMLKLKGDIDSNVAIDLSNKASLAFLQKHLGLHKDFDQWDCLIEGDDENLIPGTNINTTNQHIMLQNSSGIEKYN
ASSAY PROCEDURE: Lp-PLA2 human plasma assay (Thio-PAF assay)
Type: biochemical
EXPERIMENTAL SETUP: text thresholds, read-out: pIC50 values in the thio-PAF assay (converted)
Each record here notes measured IC50.

Worked examples, 5 compounds total:
- Cc1ccc(Cc2c[nH]c(NCCc3ccc(Oc4ccc(Cl)c(C(F)(F)F)c4)cc3)nc2=O)cn1 [E210]: ≤ 100 nM
- O=c1ccc(Cc2c[nH]c(NCCc3ccc(Oc4ccc(Cl)c(C(F)(F)F)c4)cc3)nc2=O)c[nH]1 [E212]: ≤ 100 nM
- COc1ncc(Cc2c[nH]c(NCCc3ccc(Oc4ccc(Cl)c(C(F)(F)F)c4)cc3)nc2=O)cn1 [E9]: ≤ 100 nM
- COc1ncc(Cc2cn(C)c(SCc3ccc(Oc4ccc(Cl)c(C(F)(F)F)c4)c(C#N)c3)nc2=O)cn1 [E85]: ≤ 100 nM
- CN(CCc1ccc(Oc2ccc(Cl)c(C(F)(F)F)c2)cc1)c1nc(=O)c(Cc2cncnc2)cn1C [E196]: ≤ 1000 nM

QUERY: Give recorded IC50. COc1ncc(Cc2cn(C)c(SCc3ccc(Oc4ccc(Cl)c(C(F)(F)F)c4)cc3)nc2=O)cn1 [E75]
RESULT: ≤ 100 nM

QUERY: Provide one value: measured IC50 of O=c1cc(Cc2c[nH]c(NCCc3ccc(Oc4ccc(Cl)c(C(F)(F)F)c4)cc3)nc2=O)cc[nH]1 [E216]
RESULT: ≤ 1000 nM
